Measurement Target: human NK3 receptor (Homo sapiens, UniProt P29371)
Assay Name: [3H]SR142801 competition binding assay (hNK3 receptor binding)
Measurement Context: [3H]SR142801 radioligand; membranes from HEK293 cells transiently expressing recombinant human NK3 receptor; Ki by Cheng-Prussoff; read-out: KiNK3 h
Protocol: [^3H]SR^142801 Competition Binding Assay hNK3 receptor binding experiment were performed using [^3H]SR^142801 (Catalog No. TRK1035, specific activity: 74.0 Ci/mmol, Amersham, GE Healthcare UK limited, Buckinghamshire, UK) and membrane isolated from HEK293 cells transiently expressing recombinant human NK3 receptor. […] Nonspecific binding was measured in the presence of 10 μM SB222200 for both radioligands. […]
Please respond with reported pKi for every item in the list.
Answers are plain numbers, as −log10 of the molar value.

Batch request: pKi for each of the following compounds.
1. C[C@@H](Oc1ccc(Cl)cn1)[C@@H]1CN(C(=O)c2ccc(CCN3CCCC3)nc2)C[C@H]1c1ccc(Cl)c(Cl)c1 (racemic)
2. Cc1ncc(C(=O)N2C[C@H]([C@H](C)Oc3ccc(Cl)cn3)[C@@H](c3ccc(Cl)c(F)c3)C2)cn1
3. Cc1nccc(C(=O)N2C[C@H]([C@H](C)Oc3ccc(C#N)cn3)[C@@H](c3ccc(Cl)c(Cl)c3)C2)n1 (racemic)

result:
1: 8.72; 2: 7.96; 3: 7.28

====

Measurement Target: human NK3 receptor (Homo sapiens)
Assay Name: [3H]SR142801 competition binding assay (hNK3 receptor binding)
Measurement Context: [3H]SR142801 radioligand; membranes from HEK293 cells transiently expressing recombinant human NK3 receptor; Ki by Cheng-Prussoff; read-out: KiNK3 h
Exercise: for every item that follows, state its recorded log10 of Ki.
Scale: log10; quantity: Ki; unit before log: nM

>>> experimental_value("CC(=O)Nc1ccc(C(=O)N2C[C@@H]([C@@H](C)Oc3ccc(Cl)cn3)[C@@H](c3ccc(Cl)c(Cl)c3)C2)cn1 (racemic)")
1.19
>>> experimental_value("C[C@@H](Oc1ccc(Cl)cn1)[C@@H]1CN(C(=O)c2ccc(CN(C)C)cc2)C[C@H]1c1ccc(Cl)c(Cl)c1 (racemic)")
1.41
>>> experimental_value("C[C@H](Oc1ccc(C(F)(F)F)cn1)[C@H]1CN(C(=O)c2ccnc(Cl)c2)C[C@@H]1c1ccc(Cl)c(Cl)c1 (racemic)")
0.51

# batch size: 4; output log10 of Ki per entry
1. C[C@@H](Oc1ccc(Cl)cn1)[C@@H]1CN(C(=O)c2ccc(C#N)cc2)C[C@H]1c1ccc(Cl)c(Cl)c1 (racemic) [Example 10]
2. C[C@@H](Oc1ccc(Cl)cn1)[C@@H]1CN(C(=O)c2ccc(N(C)C)nc2)C[C@H]1c1ccc(Cl)c(Cl)c1 (racemic)
3. COc1ncc(C(=O)N2C[C@@H]([C@@H](C)Oc3ccc(Cl)cn3)[C@H](c3ccc(Cl)c(Cl)c3)C2)cn1 (racemic)
4. CSc1ncc(C(=O)N2C[C@@H]([C@@H](C)Oc3ccc(Cl)cn3)[C@H](c3ccc(Cl)c(Cl)c3)C2)cn1 (racemic)

result:
1: 0.51; 2: 0.76; 3: 1.29; 4: 1.63

====

Measurement Target: human NK3 receptor (Homo sapiens, UniProt P29371)
Assay Name: [3H]SR142801 competition binding assay (hNK3 receptor binding)
Measurement Context: [3H]SR142801 radioligand; membranes from HEK293 cells transiently expressing recombinant human NK3 receptor; Ki by Cheng-Prussoff; read-out: KiNK3 h
Measured Endpoint: pKi
Numbers only, as −log10 of the molar value.

>>> experimental_value("C[C@H](Oc1ccc(C(F)(F)F)cn1)[C@H]1CN(C(=O)c2ccc(C#N)nc2)C[C@@H]1c1ccc(Cl)c(Cl)c1 (racemic)")
8.37
>>> experimental_value("COc1ccc(C(=O)N2C[C@@H]([C@@H](C)Oc3ccc(F)cn3)[C@H](c3ccc(Cl)c(Cl)c3)C2)cn1 (racemic)")
7.18

Take each entry in turn and give its pKi.
1. Cc1cc(C(=O)N2C[C@@H]([C@@H](C)Oc3ccc(Cl)cn3)[C@H](c3ccc(Cl)c(Cl)c3)C2)c(C)o1 (racemic)
2. Cc1ncc(C(=O)N2C[C@H]([C@H](C)Oc3ccc(C#N)cn3)[C@@H](c3ccc(Cl)c(F)c3)C2)cn1
3. Cc1cc(C(=O)N2C[C@H]([C@H](CO)Oc3ccc(Cl)cn3)[C@@H](c3ccc(Cl)c(Cl)c3)C2)cnn1

result:
7.23
7.74
8.30

====

Assignment: determine reported pKi for the given molecules.
Measurement Target: human NK3 receptor (Homo sapiens)
Sequence (P29371 1-465): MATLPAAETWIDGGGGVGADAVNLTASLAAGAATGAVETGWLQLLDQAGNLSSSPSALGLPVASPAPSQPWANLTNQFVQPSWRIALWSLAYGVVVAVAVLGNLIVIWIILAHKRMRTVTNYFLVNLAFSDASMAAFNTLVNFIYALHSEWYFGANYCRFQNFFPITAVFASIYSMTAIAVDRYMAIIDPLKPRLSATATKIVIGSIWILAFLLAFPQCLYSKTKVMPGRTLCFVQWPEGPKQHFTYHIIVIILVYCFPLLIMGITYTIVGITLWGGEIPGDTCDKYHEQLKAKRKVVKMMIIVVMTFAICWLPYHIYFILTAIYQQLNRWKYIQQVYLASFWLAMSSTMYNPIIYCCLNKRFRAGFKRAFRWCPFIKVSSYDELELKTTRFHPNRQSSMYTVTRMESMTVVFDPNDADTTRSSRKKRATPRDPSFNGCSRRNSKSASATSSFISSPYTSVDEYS
Assay Name: [3H]SR142801 competition binding assay (hNK3 receptor binding)
Measurement Context: [3H]SR142801 radioligand; membranes from HEK293 cells transiently expressing recombinant human NK3 receptor; Ki by Cheng-Prussoff; read-out: KiNK3 h
One number for each entry, as −log10 of the molar value.

The examples below pair each entry with its known result.
>>> experimental_value("C[C@H](Oc1ccc(C#N)cn1)[C@H]1CN(C(=O)c2ccc3[nH]cnc3c2)C[C@@H]1c1ccc(Cl)c(Cl)c1 (racemic)")
7.54
>>> experimental_value("Cc1ncc(C(=O)N2C[C@@H]([C@@H](C)Oc3ccc(Cl)cn3)[C@@H](c3ccc(Cl)c(Cl)c3)C2)c(C)n1 (racemic)")
7.50
>>> experimental_value("COc1ccc(C(=O)N2C[C@@H]([C@@H](C)Oc3ncc(F)cn3)[C@H](c3ccc(Cl)c(Cl)c3)C2)cn1 (racemic)")
7.20
>>> experimental_value("Cc1cc(C(=O)N2C[C@H]([C@H](C)Oc3ccc(C#N)cn3)[C@@H](c3ccc(F)c(F)c3)C2)c(C)nn1")
7.07
>>> experimental_value("C[C@@H](Oc1ccc(Cl)cn1)[C@@H]1CN(C(=O)c2cnc(C#N)nc2)C[C@H]1c1ccc(Cl)c(Cl)c1")
8.34

Please give pKi, item by item, for the list that follows.
1. Cc1cc(C(=O)N2C[C@@H]([C@@H](C)Oc3ccc(Cl)cn3)[C@H](c3ccc(Cl)c(Cl)c3)C2)ccn1 (racemic)
2. C[C@@H](Oc1ccc(Cl)cn1)[C@@H]1CN(C(=O)c2ccc(CC#N)o2)C[C@H]1c1ccc(Cl)c(Cl)c1 (racemic)
3. Cc1cncc(C(=O)N2C[C@H]([C@H](C)Oc3ccc(C#N)cn3)[C@@H](c3ccc(Cl)c(Cl)c3)C2)c1 (racemic)

result:
8.20
7.10
8.17

====

Kindly supply the reported log10 of Ki values for the records listed here.
Measurement Target: human NK3 receptor (Homo sapiens)
Assay Name: [3H]SR142801 competition binding assay (hNK3 receptor binding)
Measurement Context: [3H]SR142801 radioligand; membranes from HEK293 cells transiently expressing recombinant human NK3 receptor; Ki by Cheng-Prussoff; read-out: KiNK3 h
Please keep in mind that the values are log10 of Ki expressed in nM.

Solved cases below.
>>> experimental_value("C[C@H](Oc1ccc(C#N)cn1)[C@H]1CN(C(=O)c2ccc(S(=O)(=O)N(C)C)nc2)C[C@@H]1c1ccc(Cl)c(Cl)c1 (racemic)")
-0.30
>>> experimental_value("Cc1nc(-c2ccc(C(=O)N3C[C@H]([C@H](C)Oc4ccc(C#N)cn4)[C@@H](c4ccc(Cl)c(Cl)c4)C3)cc2)no1 (racemic)")
0.15
>>> experimental_value("C[C@H](Oc1ccc(C#N)cn1)[C@H]1CN(C(=O)c2ccc(CN(C)C)nc2)C[C@@H]1c1ccc(Cl)c(Cl)c1 (racemic)")
1.39
>>> experimental_value("Cc1cc(C(=O)N2C[C@H]([C@H](C)Oc3ccc(Cl)cn3)[C@@H](c3ccc(F)cc3F)C2)cnn1 (racemic)")
1.43
>>> experimental_value("C[C@H](Oc1ccc(C#N)cn1)[C@H]1CN(C(=O)c2cnc(C(C)(C)C)nc2)C[C@@H]1c1ccc(Cl)c(Cl)c1 (racemic)")
1.66

Below are 7 molecules. Give each one its log10 of Ki.
1. C[C@H](Oc1ccc(C(F)(F)F)cn1)[C@H]1CN(C(=O)c2ccc(C#N)cc2)C[C@@H]1c1ccc(Cl)c(Cl)c1 (racemic)
2. Cc1cc(C(=O)N2C[C@H]([C@H](C)Oc3ccc(Cl)cn3)[C@@H](c3ccc(F)c(F)c3)C2)cnn1
3. C[C@H](Oc1ccc(Cl)cn1)[C@H]1CN(C(=O)c2ccc(C#N)nc2)C[C@@H]1c1ccc(Cl)c(Cl)c1 (single isomer, unassigned)
4. Cc1cc(C(=O)N2C[C@H]([C@H](C)Oc3ccc(C#N)cn3)[C@@H](c3ccc(Cl)cc3)C2)cnn1
5. C[C@@H](Oc1ccc(Cl)cn1)[C@@H]1CN(C(=O)c2ccc(CN(C)C)nc2)C[C@H]1c1ccc(Cl)c(Cl)c1 (racemic)
6. C[C@H](Oc1ccc(C#N)cn1)[C@H]1CN(C(=O)c2ccc(C(F)(F)F)nc2)C[C@@H]1c1ccc(Cl)c(Cl)c1 (racemic)
7. Cc1ccc(C(=O)N2C[C@@H]([C@@H](C)Oc3ccc(C(F)(F)F)cc3)[C@H](c3ccc(Cl)c(Cl)c3)C2)cn1 (racemic)

result:
0.81
0.60
0.30
0.57
0.97
1.32
1.80

Each of the following entries comes with a recorded value; kindly state log10 of Ki for each.
1. Cc1noc(-c2ccc(C(=O)N3C[C@H]([C@H](C)Oc4ccc(C#N)cn4)[C@@H](c4ccc(Cl)c(Cl)c4)C3)cc2)n1 (racemic)
2. CCc1ncc(C(=O)N2C[C@H]([C@H](C)Oc3ccc(C#N)cn3)[C@@H](c3ccc(Cl)c(Cl)c3)C2)cc1C (racemic)
3. Cc1ncc(C(=O)N2C[C@H]([C@H](C)Oc3ccc(C#N)cn3)[C@@H](c3ccc(Cl)c(Cl)c3)C2)c(C)n1 (racemic)
4. Cc1ncc(C(=O)N2C[C@H]([C@H](C)Oc3ccc(C#N)cn3)[C@@H](c3ccc(F)c(Cl)c3)C2)cn1
5. C[C@H](Oc1ccc(C#N)cn1)[C@H]1CN(C(=O)c2ccc(C#N)cc2F)C[C@@H]1c1ccc(Cl)c(Cl)c1 (racemic)
6. C[C@H](Oc1ccc(C#N)cn1)[C@H]1CN(C(=O)c2ccc(-n3ccnc3)nc2)C[C@@H]1c1ccc(Cl)c(Cl)c1 (racemic)
7. C[C@H](Oc1ccc(C#N)cn1)[C@H]1CN(C(=O)c2ccc(OCC(F)(F)F)nc2)C[C@@H]1c1ccc(Cl)c(Cl)c1 (racemic)

result:
[0.04, 0.63, 1.92, 1.96, 0.76, 0.79, 0.54]

I have 3 molecules here; please give me log10 of Ki for each one.
1. C#Cc1ccc(O[C@@H](C)[C@H]2CN(C(=O)c3cnnc(C)c3)C[C@@H]2c2ccc(Cl)c(Cl)c2)nc1 (racemic)
2. C[C@@H](Oc1ccc(Cl)cn1)[C@@H]1CN(C(=O)c2ccc(C#N)nc2)C[C@H]1c1ccc(Cl)c(Cl)c1 (racemic)
3. Cc1nccn1-c1ccc(C(=O)N2C[C@H]([C@H](C)Oc3ccc(C#N)cn3)[C@@H](c3ccc(Cl)c(Cl)c3)C2)cc1 (racemic)

result:
1: 1.25; 2: 0.30; 3: 1.55

I need log10 of Ki for every entry listed below, if you could help.
1. C[C@H](Oc1ccc(C#N)cn1)[C@H]1CN(C(=O)c2ccc(F)nc2)C[C@@H]1c1ccc(Cl)c(Cl)c1 (racemic)
2. C[C@H](Oc1ccc(C#N)cn1)[C@H]1CN(C(=O)c2cnc(C3CC3)nc2)C[C@@H]1c1ccc(Cl)c(Cl)c1

result:
1.53
1.34

Source listed as patent US8012998B2.
